- assayed-target: hMAT2A (Homo sapiens (Human), UniProt P31153)
- Sequence (P31153 whole entry): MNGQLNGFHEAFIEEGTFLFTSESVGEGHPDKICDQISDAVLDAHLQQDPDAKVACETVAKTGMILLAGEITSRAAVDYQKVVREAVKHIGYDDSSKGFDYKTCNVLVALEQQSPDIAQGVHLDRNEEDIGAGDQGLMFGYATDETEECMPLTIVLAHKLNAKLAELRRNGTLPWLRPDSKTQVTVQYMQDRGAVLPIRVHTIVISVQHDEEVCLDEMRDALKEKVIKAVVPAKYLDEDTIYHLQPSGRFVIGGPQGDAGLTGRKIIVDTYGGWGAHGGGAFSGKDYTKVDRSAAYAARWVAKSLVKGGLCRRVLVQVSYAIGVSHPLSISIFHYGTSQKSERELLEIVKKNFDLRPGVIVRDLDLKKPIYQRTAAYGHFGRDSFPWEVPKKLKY
- test-description: Phosphate Sensor Fluorescence Assay (MAT2A enzyme inhibition)
- Type: biochemical
- details: L-methionine 500 uM, ATP 500 uM, class symbols
value-type: IC50

| molecule | result |
| --- | --- |
| O=c1nc(NCC2(O)CC2)c2ccc(C(F)(F)F)nc2n1-c1ccccc1Cl | < 200 nM |
| CC1CCN1c1nc(=O)n(-c2ccccc2)c2cc(Cl)ccc12 (centres unmarked) | < 200 nM |
| CNc1nc(=O)n(-c2cccc(C3CC3)c2)c2cc(Cl)ccc12 | < 200 nM |
| CN(Cc1ccccc1)c1nc(=O)n(-c2ccccc2)c2cc(Cl)ccc12 | < 200 nM |

Now for the molecule whose IC50 we want.
Fill in: IC50 of O=c1nc(N[C@H]2C[C@](O)(C(F)(F)F)C2)c2ccc(C(F)(F)F)nc2n1-c1ccccc1Cl is ___ 500 to 1000 nM

###

pIC50 values, listed per item
- assayed-target: hMAT2A (Homo sapiens (Human))
- test-description: Malachite Green Assay (MAT2A enzyme inhibition)
- Format: biochemical
- details: hMAT2A 50 nM, substrates 500 uM each, 1 hour
pIC50: −log10 of the molar value.

These recorded examples may help you get a feel for the data.
| compound | assayed-target | value-type | result |
| --- | --- | --- | --- |
| CNc1nc(=O)n(-c2cccc(C)c2)c2cc(Cl)ccc12 | hMAT2A (Homo sapiens (Human)) | pIC50 | > 6.70 |
| CN(C)c1nc(=O)n(-c2cccc(C#N)c2)c2cc(Cl)ccc12 | hMAT2A (Homo sapiens (Human)) | pIC50 | > 6.70 |
| CNc1nc(=O)n(-c2ccncc2)c2cc(Cl)ccc12 | hMAT2A (Homo sapiens (Human)) | pIC50 | 5.00 to 6.00 |

Fill in: pIC50 of CNc1nc(=O)n(-c2nccs2)c2cc(Cl)ccc12 is ___ > 6.70

Item: CNc1nc(=O)n(-c2ccccc2)c2cc(Br)ccc12 > 6.70

Item: CN(C)c1nc(=O)n(-c2cccc(CCOc3ccccc3)c2)c2cc(Cl)ccc12 > 6.70

Item: CNc1nc(=O)n(-c2ccccc2)c2cc(Cl)c(OC)cc12 > 6.70

Item: O=c1nc(Nc2ccccn2)c2ccc(Cl)cc2n1-c1ccccc1 6.30 to 6.70

Item: CNc1nc(=O)n(-c2cccc(CCO)c2)c2cc(Cl)ccc12 > 6.70

Item: O=c1nc(N2CCOCC2)c2ccc(Cl)cc2n1-c1ccccc1 6.30 to 6.70

Item: CNc1nc(=O)n(-c2cccc(F)c2)c2cc(Cl)ccc12 > 6.70

Item: CNc1nc(=O)n(-c2cccc(CCCO)c2)c2cc(Cl)ccc12 > 6.70

Item: CN(C)c1nc(=O)n(-c2cccc(Br)c2)c2cc(Cl)ccc12 > 6.70

###

- assayed-target: UniProt P31153
- test-description: Phosphate Sensor Fluorescence Assay (MAT2A enzyme inhibition)
- Format: biochemical
- details: L-methionine 500 uM, ATP 500 uM, class symbols
IC50 values, listed per item

These recorded examples may help you get a feel for the data.
| compound | value-type | result |
| --- | --- | --- |
| CNc1nc(=O)n(-c2ccccc2Cl)c2cc(C(F)(F)F)c(F)cc12 | IC50 | < 200 nM |
| O=c1nc(N[C@@H]2C[C@H]2F)c2ccc(OC(F)(F)F)cc2n1-c1ccccc1Cl (atropisomer, axis not shown) | IC50 | < 200 nM |
| CNc1nc(=O)n(-c2ccccc2)c2cc(Cl)cc(OCCO)c12 | IC50 | < 200 nM |

Fill in: IC50 of N#CC1(Nc2nc(=O)n(-c3ccccc3Cl)c3nc(C(F)(F)F)ccc23)CCC1 is ___ < 200 nM

Item: CCc1cc(C2CC2)cc2c1c(NC)nc(=O)n2-c1ccccc1C < 200 nM

Item: CNc1nc(=O)n(-c2ccccc2)c2nc(C(C)C)ccc12 < 200 nM

Item: CNc1nc(=O)n(-c2ccccc2Cl)c2cc(C3CC3)c(Br)cc12 < 200 nM

Item: Cc1ncccc1-n1c(=O)nc(N)c2ccc(C(F)(F)F)cc21 < 200 nM

Item: O=c1nc(N2CC[C@H]2CO)c2ccc(Cl)cc2n1-c1ccccc1 < 200 nM

Item: CNc1nc(=O)n(-c2ccccc2)c2nc(C(F)(F)F)ccc12 < 200 nM

Item: O=c1[nH]c(=O)n(-c2cccc3ncsc23)c2nc(C(F)(F)F)ccc12 < 200 nM

Item: Cc1ccc2c(NCC(F)F)nc(=O)n(-c3ccccc3)c2n1 < 200 nM

Item: CNc1nc(=O)n(-c2ccccc2C)c2cc(C3CC3)ccc12 < 200 nM

Item: O=C(O)c1cccc(-n2c(=O)[nH]c(=O)c3ccc(Cl)cc32)c1 1000 to 10000 nM

Item: O=c1nc(NCC(F)(F)F)c2ccc(C(F)(F)F)cc2n1-c1ccccc1 < 200 nM
